Each recorded value in this set is attributed to patent US20120214822A1.

List of pIC50 values.
Target: human active recombinant p38α-6His tagged (Homo sapiens, UniProt Q16539)
Sequence (Q16539 whole entry): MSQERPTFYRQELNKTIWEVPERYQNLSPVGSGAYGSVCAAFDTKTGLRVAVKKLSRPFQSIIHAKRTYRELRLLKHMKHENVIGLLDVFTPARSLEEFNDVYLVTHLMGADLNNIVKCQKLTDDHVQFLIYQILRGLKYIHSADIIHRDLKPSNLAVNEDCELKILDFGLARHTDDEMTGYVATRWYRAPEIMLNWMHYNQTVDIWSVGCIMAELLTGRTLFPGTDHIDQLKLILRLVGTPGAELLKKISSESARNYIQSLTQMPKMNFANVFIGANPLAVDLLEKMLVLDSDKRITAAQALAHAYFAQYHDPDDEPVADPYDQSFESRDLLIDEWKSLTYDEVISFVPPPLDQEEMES
Assay: P38 Alpha Enzyme Assay (AlphaScreen, biotinylated-ATF2 substrate);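 also: 0.5 nM final p38α, reaction started with ATP and run 45 min at 37 °C, phospho-ATF2 read by antibody-based AlphaScreen, background wells quenched with EDTA before ATP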
Format: biochemical
Settings: p38 alpha enzyme inhibition; means of replicate determinations; 4 h pre-incubation at 37° C.; SD of assay 0.2-0.3 log units
Please reply with the number alone, leaving off any unit.

Before answering, review these 2 worked examples.
molecule="Cc1ccc(C(=O)NC2CC2)cc1-n1ccnc(NC2(c3ccccc3OCCNC[C@H](C)O)CC2)c1=O [Example 230]" assay_system="human active recombinant p38α-6His tagged (Homo sapiens, UniProt Q16539)" endpoint_result=10
molecule="CCNCCOc1ccccc1C(C)(C)Nc1nccn(-c2cc(C(=O)NC3CC3)ccc2C)c1=O [Example 198]" assay_system="human active recombinant p38α-6His tagged (Homo sapiens, UniProt Q16539)" endpoint_result=9.6

q: Read off the recorded pIC50 for Cc1ccc(C(=O)NC2CC2)cc1-n1ccnc(NC[C@@H](C)c2ccccc2)c1=O [Example 58]
a: 7

q: Read off the recorded pIC50 for Cc1cccc(C2CCCN2c2nccn(-c3cc(C(=O)NC4CC4)ccc3C)c2=O)c1 (stereo not shown) [Example 96]
a: 8.5

q: Read off the recorded pIC50 for Cc1ccc(C(=O)NC2CC2)cc1-n1ccnc(NCc2cccc(C(F)(F)F)c2)c1=O [Example 93]
a: 6.9
